Assay: inhibitors of PAF-induced NFkB signaling in CF airway cells, dose response, cell-based, uHTS hits, panel, cytotoxicity readout (AID 624344)
Details: CF bronchial epithelial cells, PAF-induced NFkB reporter inhibition, with PAF, run 2; at 79 µM (top of the series) unless noted
observation_type: inhibition

The examples below pair each entry with its known result.
COc1ccc(-n2nnnc2S(=O)(=O)Cc2ccc(C(=O)O)cc2)cc1 ... 102%
NC(N)=NN=C(c1ccc(F)cc1)c1ccc(C(F)(F)F)cc1 ... 117%
CC[C@@H](C(=O)[C@@H](C)[C@@H](O)[C@H](C)[C@@H]1O[C@@H]([C@@H](CC)C(=O)O)CC[C@@H]1C)[C@H]1O[C@]2(C=C[C@@H](O)[C@]3(CC[C@@](C)([C@H]4CC[C@](O)(CC)[C@H](C)O4)O3)O2)[C@H](C)C[C@@H]1C ... 107%
NS(=O)(=O)c1ccc(CCNC(=O)c2ccc(C#CC3(O)CCCCC3)cc2)cc1 ... 102%

Would you be so kind as to report inhibition for each listed record?
1. CC(=O)Nc1ccc(NC(=O)C(C)OC(=O)c2ccccc2C(=O)c2ccc(Cl)c([N+](=O)[O-])c2)cc1 (stereo not drawn)
2. Cc1c(O)ccc2c(-c3ccccc3)cc(=O)oc12

1. 98.8%
2. 114%

Would you be so kind as to report inhibition for each listed record?
1. COc1cccc(-c2ccc3ncnc(NCc4cccnc4)c3c2)c1
2. CS(=O)(=O)Nc1cccc(-c2cc(NC=O)c3ncc(-c4ccc(F)cc4)n3c2)c1

1. 100%
2. 88.3%

* * *

Record form. Attribute: activity, % sensitization. Fill in for each entry.
Assay: TRAIL sensitizers in caspase-8 expressing neuroblastoma cells, dose response, NB7 cells plus caspase-8, luminescence, panel (AID 652002)
Settings: NB7 neuroblastoma +caspase-8, no TRAIL, compound-alone cytotoxicity counter-screen, luminescence viability, NB7+Caspase-8, run 1; at 12.5 µM (top of the series) unless noted
One number for each entry, in %.

The examples below pair each entry with its known result.
O=c1[nH]c(N/N=C\c2ccc3c(c2)OCO3)nc2ccccc12 ... 38.2
Cc1ccc2c(c1)-c1nc3ccccc3cc1C2=NC1CCCCC1 ... 4.61
NNC(=O)C1CCCn2c1nc1sc3c(c1c2=O)CCCC3 (stereo not drawn) ... -17.6
O=C1Cc2c(-c3ccccc3)cc(-c3cccc(Cl)c3)nc2-c2ccccc2N1 ... -14.1
CSc1ccc(/C=C/c2ccc3cccc(O)c3n2)cc1 ... 23.2

Would you be so kind as to report activity, % sensitization for each listed record?
1. CSc1nc(N)n2nc(-c3ccc(Cl)cc3)cc2n1
2. Clc1nc(Cl)c2ncn(-c3ccccc3)c2n1
3. c1ccc(-c2cnc(-c3ccccn3)nn2)cc1
4. CCOc1ccc(NC(=O)Nc2cccs2)cc1
5. CC1(Cc2ccc(OC(F)(F)F)cc2)C(=O)Nc2ccc(S(=O)(=O)NC3CCCCC3)cc21 (stereo not drawn)

0.419
2.2
52.7
40.7
23.3

Would you be so kind as to report activity, % sensitization for each listed record?
1. CCN(CC)c1ccc(/C=N/NC(=O)c2ccco2)cc1
2. Cc1cccc2nc(=S)n(C(=O)c3ccco3)n12
3. O=C(Nc1ccc2ccccc2c1)c1ccc(Cl)cc1

1: 34; 2: -1.17; 3: 13

Would you be so kind as to report activity, % sensitization for each listed record?
1. CN(C)CCCN(C(=O)c1ccc(S(=O)(=O)N2CCCc3ccccc32)cc1)c1nc2ccc(F)cc2s1
2. Cc1cc2nc3ccc(N(C)C)cc3nc2cc1N
3. CC(C)Cc1nc2oc3c(Cl)ncnc3c2c2c1CCCC2
4. CC(C)C[C@H](NC(=O)c1nc[nH]c1C(=O)N[C@@H](CC(C)C)C(=O)OCc1ccccc1)C(=O)OCc1ccccc1
5. O=C(N/N=C/c1ccc2cccnc2c1)c1ccco1
6. Cc1cccc(CC(=O)Nc2cc(C)c3c(=O)oc4ccccc4c3n2)c1
7. CCOc1ccc(/C=C/C(=O)Nc2cccc(C(C)=O)c2)cc1
8. Cc1ccc2oc(-c3cccc(N)c3)nc2c1

1: -8.84; 2: 24.2; 3: -9.85; 4: 0.235; 5: 39.1; 6: -6.37; 7: 37.9; 8: 53

Quick one: activity, % sensitization of Cc1nc2cc(NC(=O)Nc3cccc([N+](=O)[O-])c3)ccc2n1C ?
0.985

* * *

Target: PEG-3 (UniProt Q6IN02)
Sequence (Q6IN02 whole entry, looked up): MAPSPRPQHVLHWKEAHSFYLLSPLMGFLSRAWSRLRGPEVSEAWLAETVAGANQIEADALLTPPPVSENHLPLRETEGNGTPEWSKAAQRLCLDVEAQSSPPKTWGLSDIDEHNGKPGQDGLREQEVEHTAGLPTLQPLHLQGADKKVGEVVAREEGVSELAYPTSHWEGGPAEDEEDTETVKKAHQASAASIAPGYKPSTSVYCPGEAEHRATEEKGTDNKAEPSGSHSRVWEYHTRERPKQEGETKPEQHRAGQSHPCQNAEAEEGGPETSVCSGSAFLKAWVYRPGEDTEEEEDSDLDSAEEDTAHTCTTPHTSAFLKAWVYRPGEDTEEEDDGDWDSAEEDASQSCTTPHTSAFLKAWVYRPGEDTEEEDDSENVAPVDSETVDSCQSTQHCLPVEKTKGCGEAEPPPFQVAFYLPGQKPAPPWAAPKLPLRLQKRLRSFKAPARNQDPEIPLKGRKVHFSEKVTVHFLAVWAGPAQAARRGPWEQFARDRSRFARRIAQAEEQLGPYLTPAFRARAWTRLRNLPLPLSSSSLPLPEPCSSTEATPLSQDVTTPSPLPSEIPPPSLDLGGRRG
Assay: Peg3 promoter luciferase inhibitors, potency, dose response, cell-based, HeLa, CREF/GAPDH counter-screen panel (AID 624167)
Conditions: CREF/GAPDH counter-screens; HeLa PEG-Prom luciferase reporter, overnight, run 2, dose range 1, at 100 µM (top of the series) unless noted
Record form. Attribute: inhibition. Fill in for each entry.
Numbers only, in %.

CCN(CC)CCN1CCN(c2cncc(-c3ccc4ccccc4c3)n2)CC1 ... 102
COc1ccccc1CN(C)C(=O)c1cc(-c2cc(OC)c(OC)c(OC)c2)nc2ccccc12 ... 84.7
COc1ccc(-c2ccc3[nH]c4c(c3c2)CCN2C[C@@H]([C@H](C)O)[C@@H](N(C)C(=O)Nc3cc(Cl)cc(Cl)c3)C[C@@H]42)cc1 ... 96.5

Would you be so kind as to report inhibition for each listed record?
1. CC(C)CC(NS(=O)(=O)OCC(Cl)(Cl)Cl)c1ccccc1 (stereo not given)
2. CCC(=O)NC(c1cccs1)c1cc([N+](=O)[O-])c2cccnc2c1O (stereo not given)
3. COc1cccc(C(=O)c2sc(NC(C)C)nc2N)c1
4. CC(C)(C)OC(=O)CC(S(=O)(=O)c1ccccc1)S(=O)(=O)c1ccccc1
5. O=c1cc2oc3cc(O)c(O)cc3c(-c3ccccc3[N+](=O)[O-])c-2cc1O
6. COc1ccccc1Nc1nc(-c2sc(NC(=O)c3ccco3)nc2C)cs1
7. CN(C)C=NC(=O)c1[nH]c2ccc(Cl)cc2c1-c1ccccc1

[99.4, 101, 95.7, 101, 99.6, 52.5, 96.5]

* * *

Target: Sentrin-specific protease 6 (Homo sapiens) (UniProt Q9GZR1)
Sequence (Q9GZR1 628-1112 limits assumed): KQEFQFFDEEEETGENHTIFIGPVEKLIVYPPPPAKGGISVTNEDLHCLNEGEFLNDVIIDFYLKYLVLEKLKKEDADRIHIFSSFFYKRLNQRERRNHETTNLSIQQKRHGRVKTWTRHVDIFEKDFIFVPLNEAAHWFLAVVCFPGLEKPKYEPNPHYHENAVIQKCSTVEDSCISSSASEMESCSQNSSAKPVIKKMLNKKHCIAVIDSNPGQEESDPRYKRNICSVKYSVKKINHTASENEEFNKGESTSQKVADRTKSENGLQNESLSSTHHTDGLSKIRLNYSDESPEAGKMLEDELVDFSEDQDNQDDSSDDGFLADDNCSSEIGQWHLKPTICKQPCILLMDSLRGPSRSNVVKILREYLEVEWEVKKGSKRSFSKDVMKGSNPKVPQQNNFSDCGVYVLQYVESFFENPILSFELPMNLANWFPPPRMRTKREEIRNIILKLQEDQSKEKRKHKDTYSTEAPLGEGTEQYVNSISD
Assay: SENP6 protease inhibitors, confirmation, biochemical, luminescence, single concentration (AID 488915)
Details: recombinant SENP6, Z-RLRGG-aminoluciferin luminescence; at 12.5 µM; stronger effect = higher value
The other results are listed elsewhere or left out. Calls of active or inactive are those of the source.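 Rule for the calls: active = mean inhibition above about 50% in the one-dose retest (limit read from the data); inactive = the rest.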
observation_type: inhibition

The examples below pair each entry with its known result.
COc1cc(C#Cc2ccc3cc(CCCO)oc(=O)c3c2)cc(OC)c1 ... 72.2% (active)
c1ccc(CN=C2Nc3ccccc3CS2)nc1 ... 41.9% (inactive)
C=CCn1c(C)cc(C2=NNC(=NCC)SC2)c1C ... 1% (inactive)

Would you be so kind as to report inhibition for each listed record?
1. CNc1nc(Nc2ccc(C)c(Cl)c2)nc(N)c1[N+](=O)[O-]
2. Cc1ccc(C(=O)O/N=C(\N)c2ccccn2)cc1Cl
3. O=C(CSC(=S)N1CCOCC1)c1ccccc1
4. Cc1cccc(NC(=O)/C=C/c2ccc3c(c2)OCO3)n1
5. COCCn1nnnc1C(c1cc2ccc(OC)cc2[nH]c1=O)N1CCc2ccccc2C1 (stereo unspecified)
6. CC(=O)Nc1cccc(-c2csc(Nc3cccc(C)n3)n2)c1
7. Clc1ccc(C2=CSC3=Nc4cccc5cccc(c45)N23)cc1
8. CC(=O)N(C1=C(Cl)C(=O)c2ccccc2C1=O)c1ccc(C(=O)O)cc1

98.7% (active)
81.3% (active)
77.6% (active)
81% (active)
23% (inactive)
93.9% (active)
55.9% (active)
91% (active)

* * *

Record form. Attribute: activity. Fill in for each entry.
Biological target: Tumor necrosis factor receptor superfamily member 10B (Homo sapiens) (UniProt O14763)
Sequence (O14763 whole entry, looked up): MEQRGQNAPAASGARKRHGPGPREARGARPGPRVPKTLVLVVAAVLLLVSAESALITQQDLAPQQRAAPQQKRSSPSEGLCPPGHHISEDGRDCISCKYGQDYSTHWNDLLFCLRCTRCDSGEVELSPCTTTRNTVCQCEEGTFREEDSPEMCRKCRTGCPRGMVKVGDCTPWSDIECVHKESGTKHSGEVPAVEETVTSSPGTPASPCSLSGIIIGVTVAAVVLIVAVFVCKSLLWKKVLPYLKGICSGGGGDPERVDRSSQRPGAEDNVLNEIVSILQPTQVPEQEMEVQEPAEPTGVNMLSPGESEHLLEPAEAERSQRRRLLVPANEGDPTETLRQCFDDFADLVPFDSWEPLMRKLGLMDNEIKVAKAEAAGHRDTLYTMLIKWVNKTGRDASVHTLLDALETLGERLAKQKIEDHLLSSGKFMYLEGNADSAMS
Test: caspase-8 TRAIL sensitization, hit retest, confirmation, cell-based, NB7+caspase-8, with/without TRAIL, luminescence panel (AID 651596)
Conditions: NB7 neuroblastoma + caspase-8, TRAIL sensitization, luminescence viability, with TRAIL, mean of runs, at 10 µM, stronger effect = higher value
Numbers only, in %.

Clc1nc(Cl)c2ncn(-c3ccccc3)c2n1 ... 81

Would you be so kind as to report activity for each listed record?
1. Cc1cc(C)cc(N2C(N)=NC(N)=NC2c2cccc(Cl)c2)c1 (stereo unspecified)
2. CCCCN=C1NN=C(c2ccc3c(c2)OCCO3)CS1
3. O=C(CC(O)(C(F)(F)F)C(F)(F)F)Nc1ccc(Cl)c(Cl)c1
4. C#CC(=O)N(c1ccc(OC)cc1OC)C(C(=O)NC1CCCC1)c1cccs1 (stereo unspecified)
5. CCc1ccc(-n2nc3cc(C)c(N)cc3n2)cc1
6. CC(C)c1ccc(OCc2cccc(C(=O)N/N=C/c3cccnc3)c2)cc1
7. CCOc1ccc(C(=O)O/N=C(\N)c2ccccn2)cc1OCC
8. C(=N\Nc1nc2ccccc2[nH]1)/c1ccccn1

1: 57.8; 2: 47.9; 3: 61.6; 4: 99; 5: 64.4; 6: 47.6; 7: 82.3; 8: 92

Would you be so kind as to report activity for each listed record?
1. Cc1nc(-c2ccc(C(=O)Nc3cccc(F)c3)cc2)cs1
2. CSc1nnc(NC(=O)c2nc(S(=O)(=O)Cc3cccc(C)c3)ncc2Cl)s1

[76.6, 93]
